Origin of values: patent US9394304B2

- subject.of.test: h-TRPA1 (Homo sapiens (Human), UniProt O75762)
- Sequence (O75762 whole entry): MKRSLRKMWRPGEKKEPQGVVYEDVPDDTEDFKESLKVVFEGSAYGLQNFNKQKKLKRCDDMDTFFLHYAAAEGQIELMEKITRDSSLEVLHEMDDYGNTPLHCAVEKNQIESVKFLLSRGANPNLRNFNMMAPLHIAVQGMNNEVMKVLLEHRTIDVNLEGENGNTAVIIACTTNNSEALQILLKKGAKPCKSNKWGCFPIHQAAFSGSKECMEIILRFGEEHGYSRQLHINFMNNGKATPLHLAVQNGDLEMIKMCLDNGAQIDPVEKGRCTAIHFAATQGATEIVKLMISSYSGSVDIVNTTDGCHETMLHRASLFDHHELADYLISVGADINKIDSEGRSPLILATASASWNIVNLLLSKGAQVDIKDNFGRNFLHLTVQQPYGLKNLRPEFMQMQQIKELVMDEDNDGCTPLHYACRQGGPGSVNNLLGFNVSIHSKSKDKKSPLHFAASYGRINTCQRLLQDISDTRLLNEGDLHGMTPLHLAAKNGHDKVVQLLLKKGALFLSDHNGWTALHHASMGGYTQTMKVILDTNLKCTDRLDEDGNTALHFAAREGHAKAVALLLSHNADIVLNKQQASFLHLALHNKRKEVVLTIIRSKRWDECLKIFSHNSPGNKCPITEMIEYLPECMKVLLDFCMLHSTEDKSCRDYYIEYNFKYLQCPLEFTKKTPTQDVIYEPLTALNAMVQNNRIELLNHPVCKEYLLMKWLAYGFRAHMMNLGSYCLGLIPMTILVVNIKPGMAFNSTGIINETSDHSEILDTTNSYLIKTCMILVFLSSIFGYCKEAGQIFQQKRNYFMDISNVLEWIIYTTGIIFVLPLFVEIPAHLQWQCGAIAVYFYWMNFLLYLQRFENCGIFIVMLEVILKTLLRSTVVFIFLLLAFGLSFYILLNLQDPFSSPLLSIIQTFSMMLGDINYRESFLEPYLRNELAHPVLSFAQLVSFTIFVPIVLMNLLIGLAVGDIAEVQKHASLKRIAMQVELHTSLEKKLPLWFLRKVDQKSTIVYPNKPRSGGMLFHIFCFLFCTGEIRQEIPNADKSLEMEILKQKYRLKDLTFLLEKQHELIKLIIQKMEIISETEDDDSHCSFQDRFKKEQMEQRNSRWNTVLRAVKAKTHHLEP
- assay.details: Dose response calcium flux (FLIPR) assay, ChanTest hTRPA1-CHO stably transfected cell line, cinnamaldehyde agonist
- Format: cell-based
- experimental.context: @ 10.0 μM; % inhibition of the inhibitor control; read-out: Inhibition % @ concentration
observed.property: inhibition at 10 µM (%)

Request the reported inhibition at 10 µM associated with CC(C)(C)Nc1c(-c2cccc(Br)c2)nc2ccc(C(F)(F)F)cn12 [Example 17] 100

What value of inhibition at 10 µM has been reported for the following compound? Clc1cccc(-c2nc3ccc(Cl)cn3c2NC2CC2)c1 [Example 7] 100

Query: inhibition at 10 µM; subject: Cc1cc(Br)cn2c(NC(C)(C)C)c(-c3cccc(Cl)c3)nc12 [Example 10] 100

Entry under review: C#Cc1cccc(-c2nc3ccc(C(F)(F)F)cn3c2NC(C)C)c1 [Example 15] . Reported inhibition at 10 µM? 100

Need inhibition at 10 µM, item CC(C)(C)Nc1c(-c2cccc(C#N)c2)nc2ccc(Cl)cn12 [Example 6] 90

====

- subject.of.test: h-TRPA1 (Homo sapiens (Human), UniProt O75762)
- assay.details: Dose response calcium flux (FLIPR) assay, ChanTest hTRPA1-CHO stably transfected cell line, cinnamaldehyde agonist
- Type: cell-based
- experimental.context: @ 30 μM; % inhibition of the inhibitor control; read-out: Inhibition % @ concentration
observed.property: inhibition at 30 µM (%)

I would be grateful if you could share the reported inhibition at 30 µM for COC(=O)CNc1c(-c2cccc(F)c2)nc2ccc(F)cn12 [Example 3] . 74.3

Entry Cc1cc2nc(-c3cccc(Cl)c3)c(NC(C)(C)C)n2cc1Br [Example 9] has what inhibition at 30 µM? 100

# inhibition at 30 µM lookup, item CC(C)(C)Nc1c(-c2cccc(C#N)c2)nc2ccc(C(F)(F)F)cn12 [Example 5] 100

Give its inhibition at 30 µM value. Item: CC(C)(C)Nc1c(-c2cccc(Cl)c2)nc2cc(C(F)(F)F)ccn12 [Example 13] 100

Would you mind telling me what inhibition at 30 µM value was observed for CC(C)(C)Nc1c(-c2cc(Cl)cc(Cl)c2)nc2ccc(C(F)(F)F)cn12 [Example 11] ? 98

Quick check: inhibition at 30 µM of CC(C)(C)Nc1c(-c2cccc(C#N)c2)nc2ccc(F)cn12 [Example 18] ? 80.9

Look up inhibition at 30 µM: CCNc1c(-c2cccc(Cl)c2)nc2ccc(C(F)(F)F)cn12 [Example 14] 100

// lookup inhibition at 30 µM for CC(C)Nc1c(-c2cccc(Cl)c2)nc2ccc(Cl)cn12 [Example 2] 100

====

- subject.of.test: h-TRPA1 (Homo sapiens (Human), UniProt O75762)
- assay.details: Dose response calcium flux (FLIPR) assay, ChanTest hTRPA1-CHO stably transfected cell line, cinnamaldehyde agonist
- experimental.context: CHO-K1 Tet-On TRPA1 cells, calcium flux, 100 uM cinnamaldehyde
pIC50: −log10 of the molar value.
observed.property: pIC50

Example entries begin here.
What does the data say about its pIC50? Entry: COC(=O)CNc1c(-c2cccc(F)c2)nc2ccc(F)cn12 [Example 3] 5.48

Which pIC50 value belongs to CC(C)Nc1c(-c2cccc(Cl)c2)nc2ccc(Cl)cn12 [Example 2] ? 6.71

Please report the recorded pIC50 for CC(C)(C)Nc1c(-c2cccc(C#N)c2)nc2ccc(Cl)cn12 [Example 6] . 5.67

Look up pIC50 for this molecule: CCNc1c(-c2cccc(Cl)c2)nc2ccc(C(F)(F)F)cn12 [Example 14] 5.68

Which pIC50 is listed for CC(C)(C)Nc1c(-c2cc(Cl)cc(Cl)c2)nc2ccc(C(F)(F)F)cn12 [Example 11] ? 5.88

Could you tell me which pIC50 is on file for CC(C)(C)Nc1c(-c2cccc(C#N)c2)nc2ccc(C(F)(F)F)cn12 [Example 5] ? 6.07

Look up pIC50: CC(C)(C)Nc1c(-c2cccc(C#N)c2)nc2ccc(F)cn12 [Example 18] 4.69

// pIC50 lookup, key: CC(C)Nc1c(-c2cccc(Cl)c2)nc2ccc(C(F)(F)F)cn12 [Example 16] 6.84

Given the entry CC(C)(C)Nc1c(-c2cccc(Cl)c2)nc2c(Br)cc(Cl)cn12 [Example 8] , report its measured pIC50. 5.96

Dear colleague, I am looking for the recorded pIC50 of the following molecule: C#Cc1cccc(-c2nc3ccc(C(F)(F)F)cn3c2NC(C)(C)C)c1 [Example 12] 6.96

[P] C#Cc1cccc(-c2nc3ccc(C(F)(F)F)cn3c2NC(C)C)c1 [Example 15]
[Q] CC(C)(C)Nc1c(-c2cccc(Cl)c2)nc2cc(C(F)(F)F)ccn12 [Example 13]
[R] Cc1cc(Br)cn2c(NC(C)(C)C)c(-c3cccc(Cl)c3)nc12 [Example 10]
Hey, can you sort those molecules up there by pIC50, smallest first? Quick reminder: the answer is the labels in the order asked. Q, R, P

[a] CC(C)(C)Nc1c(-c2cccc(F)c2)nc2ccc(C(F)(F)F)cn12 [Example 4]
[b] CC(C)(C)Nc1c(-c2cccc(Br)c2)nc2ccc(C(F)(F)F)cn12 [Example 17]
// pick larger pIC50 from pair: a vs b Answer = label. b
(b: 6.58, a: 5.88)
